Below: a set of entries, each annotated with reported IC50, neutrophil chemotaxis.
- TARGET_ENTITY: T1, recombinant human IL-8, (ser-IL-8)72 (human, UniProt P10145 28-99, In some assays the protein was iodinated (125I on tyrosine) or coated on a plate. The letters are unchanged.)
- T1 sequence: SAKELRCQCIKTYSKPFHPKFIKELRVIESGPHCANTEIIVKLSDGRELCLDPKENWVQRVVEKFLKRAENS
- PROTOCOL_TEXT: cell-based or functional assay

BINDER	IC50, neutrophil chemotaxis
full length 6G4V11N35A IgG1 (antibody, V domains shown, not shown: a dimerising Fc or GST) VH: EVQLVQSGGGLVQPGGSLRLSCAASGYSFSSHYMHWVRQAPGKGLEWVGYIDPSNGETTYNQKFKGRFTLSRDNSKNTAYLQMNSLRAEDTAVYYCARGDYRYNGDWFFDVWGQGTLVTVSS VL: DIQMTQSPSSLSASVGDRVTITCRSSQSLVHGIGATYLHWYQQKPGKAPKLLIYKVSNRFSGVPSRFSGSGSGTDFTLTISSLQPEDFATYYCSQSTHVPLTFGQGTKVEIKR	4 nM
6G4V11N35E Fab (Fab, V domains shown) VH: EVQLVQSGGGLVQPGGSLRLSCAASGYSFSSHYMHWVRQAPGKGLEWVGYIDPSNGETTYNQKFKGRFTLSRDNSKNTAYLQMNSLRAEDTAVYYCARGDYRYNGDWFFDVWGQGTLVTVSS VL: DIQMTQSPSSLSASVGDRVTITCRSSQSLVHGIGETYLHWYQQKPGKAPKLLIYKVSNRFSGVPSRFSGSGSGTDFTLTISSLQPEDFATYYCSQSTHVPLTFGQGTKVEIKR	~1.2 nM
humanized 6G425 F(ab)-8 (Fab, V domains shown) VH: EVQLVESGGGLVQPGGSLRLSCAASGYSFSSHYMHWVKQAPGKGLEWVGYIDPSNGETTYNQKFKGRFTLSRDNSKNTAYLQMNSLRAEDTAVYYCARGDYRYNGDWFFDVWGQGTLVTVSS VL: DIQMTQSPSSLSASVGDRVTITCRSSQSLVHGIGNTYLHWYQQKPGKAPKLLIYKVSNRFSGVPSRFSGSGSGTDFTLTISSLQPEDFATYYCSQSTHVPLTFGQGTKVEIKR	12 nM
full length 6G4V11N35E IgG1 (antibody, V domains shown, not shown: a dimerising Fc or GST) VH: EVQLVQSGGGLVQPGGSLRLSCAASGYSFSSHYMHWVRQAPGKGLEWVGYIDPSNGETTYNQKFKGRFTLSRDNSKNTAYLQMNSLRAEDTAVYYCARGDYRYNGDWFFDVWGQGTLVTVSS VL: DIQMTQSPSSLSASVGDRVTITCRSSQSLVHGIGETYLHWYQQKPGKAPKLLIYKVSNRFSGVPSRFSGSGSGTDFTLTISSLQPEDFATYYCSQSTHVPLTFGQGTKVEIKR	6 nM
